Entries annotated with measured protein stability index
B1: KCNA4 (parent)
chain: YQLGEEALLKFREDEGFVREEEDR

Variants of: B1
Protocol summary: protein stability index of a GFP-peptide fusion (GPS, HEK-293T) (PSI 1-6); higher = more stable;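 further: lentivirally expressed fusions sorted by FACS into six bins by GFP to DsRed ratio, PSI derived from sequencing read proportions per bin multiplied by bin number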
Experimental setup: c terminus: a fixed tail appended

{"columns": ["Mutation name", "protein stability index"],
 "data": [
  ["R12P", 5.62],
  ["L8M", 4.56],
  ["F11Q", 5.1],
  ["E21D", 4.4],
  ["L9R", 4.41],
  ["K10R", 4.09],
  ["E13I", 3.32],
  ["R24P", 5.16],
  ["Y1T", 5.57],
  ["L9G", 5.03],
  ["R24I", 4.6],
  ["R12Q", 4.59],
  ["E15Y", 4.3],
  ["D14N", 3.98],
  ["A7T", 4.95],
  ["E5W", 1.63],
  ["L8I", 5.21],
  ["D23A", 4.28],
  ["G16C", 4.83],
  ["R24H", 4.83],
  ["Y1M", 5.47],
  ["R19P", 4.62]
]}
